Listing: inhibition of selected compounds
Biological target: Prolyl endopeptidase-like (Homo sapiens) (UniProt Q4J6C6)
Sequence (Q4J6C6 whole entry, looked up): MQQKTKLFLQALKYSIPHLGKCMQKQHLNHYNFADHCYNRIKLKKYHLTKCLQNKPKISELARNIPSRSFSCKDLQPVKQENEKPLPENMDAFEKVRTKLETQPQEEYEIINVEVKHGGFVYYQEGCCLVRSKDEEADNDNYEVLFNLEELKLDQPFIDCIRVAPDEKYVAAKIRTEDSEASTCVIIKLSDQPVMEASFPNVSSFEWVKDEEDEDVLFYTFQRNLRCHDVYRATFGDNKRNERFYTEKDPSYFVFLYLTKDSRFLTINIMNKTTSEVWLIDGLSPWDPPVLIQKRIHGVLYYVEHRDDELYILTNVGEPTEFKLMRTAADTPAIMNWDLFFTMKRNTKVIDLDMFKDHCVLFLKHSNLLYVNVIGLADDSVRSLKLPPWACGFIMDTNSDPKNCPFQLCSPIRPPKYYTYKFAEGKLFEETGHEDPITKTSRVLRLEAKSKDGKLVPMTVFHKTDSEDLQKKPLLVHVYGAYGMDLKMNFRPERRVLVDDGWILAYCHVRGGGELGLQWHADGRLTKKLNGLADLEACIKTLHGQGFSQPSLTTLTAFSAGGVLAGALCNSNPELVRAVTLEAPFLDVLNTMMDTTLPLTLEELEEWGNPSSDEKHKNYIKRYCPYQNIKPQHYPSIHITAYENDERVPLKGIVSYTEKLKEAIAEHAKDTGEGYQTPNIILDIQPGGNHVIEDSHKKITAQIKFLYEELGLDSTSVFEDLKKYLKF
Test: PREPL enzyme inhibitors, primary screen, biochemical, fluorescence polarization (AID 2751);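 note: 0% = enzyme with DMSO and 100% = wells lacking enzyme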
Settings: recombinant PREPL, fluorescence polarization activity-based probe; at 5.96 µM; stronger effect = higher value
The campaign covered roughly 320,000 compounds. About 2,200 (0.69%) were called active. This is one part of a sample in which actives are shown more often than they occur.

{"compound": "CCC/C(C)=N\\Nc1nc2c(c(=O)n(C)c(=O)n2C)n1C", "unit_text": "%", "inhibition": 11.5}
{"compound": "CCOC(=O)c1cc(C#N)c(N2CCCCC2)nc1-c1ccccc1", "unit_text": "%", "inhibition": -11.5}
{"compound": "COc1ccc(/C=N/N=C/c2c[nH]c(=O)c(C#N)c2Nc2ccccc2)cc1", "unit_text": "%", "inhibition": 5.21}
{"compound": "Cc1cc(OC(C)C(=O)NC2CC(C)(C)NC(C)(C)C2)c2c(C)cc(=O)oc2c1 (stereo not given)", "unit_text": "%", "inhibition": 2.31}
{"compound": "CCC(=O)Nc1cc(C(F)(F)F)ccc1N1CCCC1", "unit_text": "%", "inhibition": 8.09}
{"compound": "O=C(CN(C(=O)c1csnn1)c1ccc(Br)cc1)NC1CCCC1", "unit_text": "%", "inhibition": 5.56}
{"compound": "CC(C)(CNC(=O)c1ccc(Cl)c(S(=O)(=O)N2CCc3ccccc3C2)c1)N1CCOCC1", "unit_text": "%", "inhibition": -27.3}
{"compound": "O=C(NCC(=O)N1CCN(c2ccccc2F)CC1)c1cccs1", "unit_text": "%", "inhibition": 3.72}
{"compound": "CCC(=C/c1sc2ccc3ccccc3c2[n+]1C)/C=C1\\Sc2ccc3ccccc3c2N1C", "unit_text": "%", "inhibition": 90.7}
{"compound": "CCOC(=O)N1CCN(S(=O)(=O)c2ccc(-n3cnnn3)cc2)CC1", "unit_text": "%", "inhibition": -0.87}
